Where do the numbers come from? From patent US20260028365A1.

Property: pIC50; scope: individual molecules
ASSAYED SYSTEM: Tyk2 (Homo sapiens (Human))
ASSAY DETAILS: pSTAT4 Cell Assay (MSD, NK92 cells)
Format: cell-based
ASSAY CONDITIONS: MSD
pIC50: −log10 of the molar value.

Some solved entries appear below for comparison.
COc1cncc(Oc2cnc(NC(C)=O)cc2Nc2cc(C)nc(C(C)(F)F)n2)n1 [Example 357] = ≤ 6.00
CC(=O)Nc1cc(Nc2cc(C)nc(C(C)(F)F)n2)c(OC[C@H]2CCC[C@@H](C)O2)cn1 (stereo in doubt) [Example 418] = ≥ 8.00
CC(=O)Nc1cc(Nc2cc(C)nc(C(C)(C)F)n2)c(-c2ccnc(C)n2)cn1 [Example 176] = ≥ 8.00
CCC(F)(F)c1cnc(NC(C)=O)cc1Nc1cc(C)nc(C(C)(F)F)n1 [Example 154] = ≤ 6.00
CC(=O)Nc1cc(Nc2cc(C)nc(C(C)(F)F)n2)c(-c2cc(C)cnn2)cn1 [Example 252] = ≥ 8.00
CCOc1cnc(NC(C)=O)cc1Nc1cc(Cl)nc(C(C)(F)F)n1 [Example 372] = 7.00 to 8.00
CC(=O)Nc1cc(Nc2cc(C)nc(C(C)(F)F)n2)c(OC[C@]23CC[C@@H](CC2)O3)cn1 [Example 423] = 7.00 to 8.00

Attention now shifts to the item below.
QUERY: Name the reported pIC50 value associated with the molecule CCOc1cnc(NC(C)=O)cc1Nc1ccnc(C(C)(F)F)n1 [Example 4]
RESULT: 7.00 to 8.00

----------
Property: pIC50; scope: individual molecules
ASSAYED SYSTEM: Tyk2 (Homo sapiens (Human), UniProt P29597)
Sequence (P29597 whole entry): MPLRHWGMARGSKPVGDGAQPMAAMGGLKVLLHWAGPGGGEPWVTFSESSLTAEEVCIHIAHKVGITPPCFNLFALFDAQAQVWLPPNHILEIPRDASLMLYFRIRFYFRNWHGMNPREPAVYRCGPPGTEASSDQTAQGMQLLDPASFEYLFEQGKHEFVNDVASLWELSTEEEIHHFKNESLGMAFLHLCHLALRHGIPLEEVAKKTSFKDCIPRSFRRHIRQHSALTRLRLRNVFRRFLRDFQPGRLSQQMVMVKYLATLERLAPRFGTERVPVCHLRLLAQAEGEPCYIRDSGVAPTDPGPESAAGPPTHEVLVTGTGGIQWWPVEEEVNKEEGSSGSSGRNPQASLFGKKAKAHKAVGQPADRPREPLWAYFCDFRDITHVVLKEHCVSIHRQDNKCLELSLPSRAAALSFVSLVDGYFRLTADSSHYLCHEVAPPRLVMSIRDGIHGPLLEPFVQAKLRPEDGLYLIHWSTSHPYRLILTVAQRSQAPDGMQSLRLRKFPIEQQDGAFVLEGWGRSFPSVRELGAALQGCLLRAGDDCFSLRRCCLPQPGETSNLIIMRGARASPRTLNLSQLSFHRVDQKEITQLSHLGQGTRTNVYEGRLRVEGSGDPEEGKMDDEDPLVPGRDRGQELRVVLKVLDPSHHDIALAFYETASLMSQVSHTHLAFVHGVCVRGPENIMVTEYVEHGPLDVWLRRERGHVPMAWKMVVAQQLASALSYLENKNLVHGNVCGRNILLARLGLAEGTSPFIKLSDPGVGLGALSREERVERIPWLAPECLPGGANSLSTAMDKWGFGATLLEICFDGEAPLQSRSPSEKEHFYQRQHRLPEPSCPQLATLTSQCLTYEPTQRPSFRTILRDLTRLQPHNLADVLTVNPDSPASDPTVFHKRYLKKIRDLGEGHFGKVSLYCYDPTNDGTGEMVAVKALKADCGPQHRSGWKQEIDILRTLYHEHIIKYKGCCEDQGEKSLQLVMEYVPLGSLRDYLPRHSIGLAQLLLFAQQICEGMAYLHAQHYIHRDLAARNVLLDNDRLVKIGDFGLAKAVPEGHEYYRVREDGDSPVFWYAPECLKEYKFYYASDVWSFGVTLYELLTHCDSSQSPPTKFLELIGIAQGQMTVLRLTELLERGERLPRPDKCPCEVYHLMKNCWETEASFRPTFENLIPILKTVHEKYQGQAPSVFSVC
ASSAY DETAILS: pSTAT4 Cell Assay (MSD, NK92 cells)
Format: cell-based
ASSAY CONDITIONS: MSD
pIC50: −log10 of the molar value.

COCCc1cncc(-c2cnc(NC(C)=O)cc2Nc2cc(C)nc(C(C)(F)F)n2)n1 = 7.00 to 8.00
CNC(=O)Nc1cc(Nc2cc(C)nc(C(C)(F)F)n2)c(-c2ccc(F)cn2)cn1 = ≥ 8.00
COc1cnc(NC(C)=O)cc1Nc1cc(C2CC2)nc(C(C)(F)F)n1 = 7.00 to 8.00

Attention now shifts to the item below.
QUERY: Name the reported pIC50 value associated with the molecule CCOc1cnc(NC(C)=O)cc1Nc1cc(OC2CC(C)(O)C2)nc(C(C)(F)F)n1 (stereo not shown)
RESULT: 7.00 to 8.00

----------
ASSAYED SYSTEM: Tyk2 (Homo sapiens (Human), UniProt P29597)
ASSAY DETAILS: pSTAT4 Cell Assay (MSD, NK92 cells)
Type: cell-based
ASSAY CONDITIONS: MSD
Structures can show the parent of a compound that is named as a salt.
Property: IC50; scope: individual compounds

Some solved entries appear below for comparison.
CCc1cc(Nc2cc(NC(C)=O)ncc2-c2ccc(OCCOC)nn2)nc(C(C)(F)F)n1 [Example 269, trifluoroacetate] = ≤ 10 nM
COc1cc(-c2cnc(NC(C)=O)cc2Nc2ccnc(C(C)(F)F)c2)ncn1 [Example 217] = ≥ 1000 nM
COc1cnc(NC(C)=O)cc1Nc1cc(C)nc(C23COC(C2)C3)n1 [Example 448] = 100 to 1000 nM
COCCNc1cncc(-c2cnc(NC(C)=O)cc2Nc2ccnc(C(C)(F)F)n2)n1 [Example 274] = 10 to 100 nM

QUERY: Name the reported IC50 value associated with the compound COCCn1ncc(-c2cnc(NC(C)=O)cc2Nc2cc(OC3CC3)nc(C(C)(F)F)n2)n1 [Example 587]
RESULT: ≤ 10 nM

QUERY: Name the reported IC50 value associated with the compound CC(=O)Nc1cc(Nc2cccc(C(C)(F)F)n2)c(-c2ccnc(C)n2)cn1 [Example 172]
RESULT: ≤ 10 nM

QUERY: Name the reported IC50 value associated with the compound CC(=O)Nc1cc(Nc2cc(C)nc(C34COC(C3)C4)n2)c(-c2ccc(N3CCOCC3)cn2)cn1 [Example 574]
RESULT: ≤ 10 nM

QUERY: Name the reported IC50 value associated with the compound CCCn1ccc(-c2cnc(NC(C)=O)cc2Nc2cc(C)nc(C(C)(F)F)n2)n1 [Example 615]
RESULT: ≤ 10 nM

QUERY: Name the reported IC50 value associated with the compound CCc1cc(Nc2cc(NC(=O)OC)ncc2OCCOC)nc(C(C)(F)F)n1 [Example 87]
RESULT: ≤ 10 nM

QUERY: Name the reported IC50 value associated with the compound CC(=O)Nc1cc(Nc2cc(C)nc(C(C)(F)F)n2)c(-c2cc3n(n2)CCN(C)C3=O)cn1 [Example 541]
RESULT: 10 to 100 nM

QUERY: Name the reported IC50 value associated with the compound COc1cnc(NC(C)=O)cc1Nc1cc(-c2cn[nH]c2)nc(C(C)(F)F)n1 [Example 416]
RESULT: 100 to 1000 nM

QUERY: Name the reported IC50 value associated with the compound COc1ccc(-c2cnc(NC(C)=O)cc2Nc2cc(C)nc(C(C)(F)F)n2)nc1OC [Example 637]
RESULT: ≤ 10 nM

QUERY: Name the reported IC50 value associated with the compound CC(=O)Nc1cc(Nc2cc(C)nc(C(C)(F)F)n2)c(-c2ccc(C)nn2)cn1 [Example 219]
RESULT: ≤ 10 nM

QUERY: Name the reported IC50 value associated with the compound CCOc1cnc(NC(C)=O)cc1Nc1cc(OC2CCC2)nc(C(C)(F)F)n1 [Example 462]
RESULT: ≤ 10 nM

QUERY: Name the reported IC50 value associated with the compound COCCOc1cnc(NC(C)=O)cc1Nc1cc(OC2CC2)nc(C(C)(C)F)n1 [Example 446]
RESULT: ≤ 10 nM

QUERY: Name the reported IC50 value associated with the compound CC(=O)Nc1cc(Nc2cc(C)nc(C(C)(F)F)n2)c(OCc2ccc(F)c(F)c2)cn1 [Example 467]
RESULT: 10 to 100 nM

QUERY: Name the reported IC50 value associated with the compound CC(=O)Nc1cc(Nc2cc(C)nc(C(C)(F)F)n2)c(-c2cc(C(C)N(C)C)ccn2)cn1 (centres unmarked) [Example 743]
RESULT: 10 to 100 nM
